biological target: erythrocytes infected with P. falciparum field isolate 9106; test: flow cytometry, staining of IEs
Measurement Type: % parasite recognition (%)
# value in %; strip the unit string

Example entries begin here.
[[record]]
binder = "MGC37 (antibody) VH: EVQLVESGGDLVQPGGSLRLSCAASGFTFRNYWMSWVRQTPGKGLEWVANIRQDGSEKYYVDSVKGRFTISRDNAKNLLYLQMNSLRAEDTAVYYCVRDKFCSDENHMHVADDLPRPSISPEPGTVIPLGSHVTFVCRGPVGVQTFRLEKDRRSTYNDTEDVSQPSPSESEARFRIDSVTEGNAGLYRCVYYKPPKWSDQSDFLELLVKGEDVTWALFPHCGADGEDSDYYMDVWGKGTTVTVSS VL: DIQLTQSPSTLSASVGDRVTISCRASQRLSRSLAWYQQRPRKAPNLLIYKASPLEIGGPSRFTGSGSGTEFTLTISSLQPDDSATYYCQQYSNYSYSFGQGTKLEIR"
unit_abbreviation = "%"
experimental_result = 7.2

[[record]]
binder = "MGC7 (antibody) VH: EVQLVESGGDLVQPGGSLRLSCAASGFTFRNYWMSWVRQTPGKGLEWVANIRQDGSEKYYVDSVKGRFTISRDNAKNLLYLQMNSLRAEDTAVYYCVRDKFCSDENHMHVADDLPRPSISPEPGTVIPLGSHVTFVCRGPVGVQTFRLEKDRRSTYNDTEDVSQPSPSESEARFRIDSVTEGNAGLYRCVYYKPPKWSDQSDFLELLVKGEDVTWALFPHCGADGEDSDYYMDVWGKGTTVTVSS VL: DIQMTQSPSSVSASVGDRVTITCRASQGLSTWLAWYQQKPGKAPKILIYAASSLQSGVPSRFSGSGSGTDFTLTISSLQPEDFATYYCQQANSFPLTFGGGTKVEIK"
unit_abbreviation = "%"
experimental_result = 6.9

[[record]]
binder = "MGC32 (antibody) VH: EVQLVESGGGLVQPGGSLRLSCVASGFNFRKSWMGWVRQAPGKGLEWVANIREDGSESFYADSVKGRFTVSRDNAKKSLYLHINSLRAEDTAVYYCARDRFCNDDEIHRHGQEDLPRPSISAAEGTVIPLGSHVTFVCRGPVGVQTFRLEKDSRSIYNDTENVSQPSPSESEARFRIDSVSEGNAGLYRCVYYKAPKWSAQSDYLELLVKGQEVTWALFTSCGGDGEEPDYDMDVRGKGTTVTVSS VL: DILMTQSPDSLAVSLGERATINCKSSQSVLYRSKNKNYLAWFQQKPGQPPKVLIYSTSTRASGVPDRFTGSGSGTDFTLTISSLQAEDVAVYYCLQYYITPYTFGQGTKLEIK"
unit_abbreviation = "%"
experimental_result = 7.8

[[record]]
binder = "MGC17 (antibody) VH: EVQLVESGGGLVQPGGSLKLSCVASGFNFRKSWMSWVRQAPGKGLEWVANIREDGSKAYYVDSVKGRFTVSRDNAKNSLYLQINSLRADDTAVYYCARDRFCSDDEDHSHGAEDLPRPSISAEEGTVIPLGSRLTFVCRGPVGVHTFRLERDRRSTYNDTEDVSHPSPSESEARFRIDSVSEGNAGLYRCVYYKSPEWSKQSDYLELLVKGQEVTWALFTSCGGDGEVPDYDMDVRGKGTTVTVSS VL: DIVMTQSPDSLAVSLGERATINCKSSQSVLYRSKNKKYLAWFQQRPGQPPKVLIYWTSTRASGVPDRFSGSGSGTDFTLTISSLQADDVAVYYCQQYFIFPYTFGQGTKLEIR"
unit_abbreviation = "%"
experimental_result = 1.3

[[record]]
binder = "MGC28 (antibody) VH: EVQLVESGGGLVQPGGSLRLSCEASGFTFSSYWMTWVRQAPGKGLEWVANINQDGSERYYVDSVKGRFTISRDTVKNSLYLQMNNLRAEDTAVYYCARQRFCSDGSLFHGEDLPRPTISAETGTVISLGSHVTFVCRGPLGVQTFRLERESRSRYSETEDVSQVGPSESEARFRIDSVSEGNAGLYRCIYYKPPKWSEQSDYLELRVKGEDVTWALLTYCGGDRDESDYYMDVWGKGTTVTVSS VL: QTVVTQEPSLTVSPGGTVTLTCASSTGSVTSGSFPNWFQQTPGQAPRSLIYSTTKKHSWTPARFSGSLLGGKAALTVSDTQPEDEAEYYCLLYCGGGQPWVFGGGTKLTVL"
unit_abbreviation = "%"
experimental_result = 7.5


Recorded result, MGC34 (antibody) VH: EVQLVESGGGLVQPGGSLRLSCEASGFTFSSYWMSWVRQAPGKGLEWVANINQDGSQKDYVDSVKGRFTISRDTAKNSLYLQMNSLRAEDTAVYYCARERLCTDDSHMHGEEDLPRPSISAEPGTVIPLGSHVTFVCRGPVGIHTFRLERESRSLYTETEDVTQVSPSESEARFRIESVTEGNAGLYRCVYYKPPKWSEQSDYLELLVKGEDVTRALFTHCGGDGKESDYHMDVWGKGTTVTVSS VL: QTVVTQEPSLTVSPGGTVTLTCASSTGAVTSGYYPSWFHQKPGQPVRALIYSTSKTHSWTPARFSGSLLGGKAALTLSNVQPEDEADYYCLLYYGGPQPWVFGGGTKLTVQ , % parasite recognition: 6.8

Recorded result, MGD41 (antibody) VH: EVQLVESGPGLVKPSGTLSVTCTISGGSINTDKWWTWVRQPPGKGLEWVGEVLHTGSTNYNPSLRGRVTISVDKSKNQFSLRLSSVTAADTAVYYCATISTLRPQRDIEDLPRPSLSAEPGTVVPLGSHVTFVCRGPVGVQTFRLERESRSTYNDTEDVSQPSPFESEARFRIDSVSEGNAGPYRCIYYKSPKWSDQSDYVELLVKGEDVTWAPPQSQLAPRACPQGELRTSTDIFSMNVWGKGTTVTVSS VL: AIRMTQSPSSLSAFTGDRVTISCRASQDIGNYLDWYHQKPGRAPKLLIHGASTLLTGVPSRFSGSGSGTDFTLNITCLQSGDFGIYYCLQYYSSPPAFGPGTRLEIK , % parasite recognition: 3.8

Recorded result, MGC33 (antibody) VH: EVHLVESGGGLVQPGGSLRLSCEASGFTFSSYWMTWVRQAPGKGLEWVANINQDGSERYYVDSVKGRFTISRDTVKNSLYLQMNNLRAEDTAVYYCARQRFCSDGSLFHGEDLPRPTISAETGTVISLGSHVTFVCRGPLGVQTFRLERESRSRYSETEDVSQVGPSESEARFRIDSVSEGNAGLYRCIYYKPPKWSEQSDYLELRVKGEDVTWALLTYCGGDRDESDYYMDVWGKGTTVTVSS VL: QTVVTQEPSLTVSPGGTVTLTCASSTGSVTSGSFPNWFQQTPGQAPRSLIYSTTKKHSWTPARFSGSLLGGKAALTVSDTQPEDEAEYYCLLYCGGGQPWVFGGGTKLTVQ , % parasite recognition: 7.5
